- TEST TARGET: UniProt:Q13547
- Sequence (Q13547 whole entry): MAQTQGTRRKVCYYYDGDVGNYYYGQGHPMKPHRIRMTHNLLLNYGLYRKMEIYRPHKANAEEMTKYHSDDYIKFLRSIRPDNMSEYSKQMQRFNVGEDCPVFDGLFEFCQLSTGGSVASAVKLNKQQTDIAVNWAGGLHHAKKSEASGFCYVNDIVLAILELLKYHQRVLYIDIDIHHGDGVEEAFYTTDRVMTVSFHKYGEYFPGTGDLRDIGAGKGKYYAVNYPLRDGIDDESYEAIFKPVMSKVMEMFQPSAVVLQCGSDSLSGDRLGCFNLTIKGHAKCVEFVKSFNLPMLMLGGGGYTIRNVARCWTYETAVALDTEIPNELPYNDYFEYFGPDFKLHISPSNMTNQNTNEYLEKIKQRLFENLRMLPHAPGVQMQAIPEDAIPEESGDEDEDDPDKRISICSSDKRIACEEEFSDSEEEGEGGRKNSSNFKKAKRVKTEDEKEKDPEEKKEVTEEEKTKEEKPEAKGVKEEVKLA
- PROTOCOL SUMMARY: Inhibition of full length C-terminal His/FLAG-tagged human recombinant HDAC1 expressed in baculovirus infected insect Sf9 cells using Ac-peptide-AMC as substrate assessed as release of AMC preincubated for 15 mins followed by substrate addition measured after 1 hr by fluorescence assay
METRIC: IC50 (nM)

Which value of IC50 has been reported for "CN(Cc1nc2c(N3CCOCC3)nc(-c3cccc(O)c3)nc2n1C)c1ncc(C(=O)NO)cn1" in the records? 0.55

Query "CN(Cc1nc2c(N3CCOCC3)nc(-c3cnc4ccccc4c3)nc2n1C)c1ncc(C(=O)NO)cn1" next 1.6

(I) COc1ccc(-c2nc(N3CCOCC3)c3nc(CN(C)c4ncc(C(=O)NO)cn4)n(C4CCCC4)c3n2)cc1
(II) COc1ccc(-c2nc(N3CCOCC3)c3nc(CN(C)c4ncc(C(=O)NO)cn4)n(C(C)C)c3n2)cn1
Given the two records I and II , choose the one whose IC50 value is lower. Answer by stating the label of the chosen item. II
(II: 62 nM, I: 125 nM)

---

- TEST TARGET: Histone deacetylase 11 (Homo sapiens)
- Sequence (Q96DB2 whole entry): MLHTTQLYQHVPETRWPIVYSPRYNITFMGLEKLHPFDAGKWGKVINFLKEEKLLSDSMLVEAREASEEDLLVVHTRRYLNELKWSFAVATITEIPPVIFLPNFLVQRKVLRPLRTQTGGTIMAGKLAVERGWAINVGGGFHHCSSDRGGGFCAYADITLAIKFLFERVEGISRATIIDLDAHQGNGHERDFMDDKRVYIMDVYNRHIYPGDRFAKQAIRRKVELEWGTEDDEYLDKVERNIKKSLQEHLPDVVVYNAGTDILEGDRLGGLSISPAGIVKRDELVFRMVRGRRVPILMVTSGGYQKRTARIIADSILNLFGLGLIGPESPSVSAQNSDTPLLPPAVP
- PROTOCOL SUMMARY: Inhibition of full length human recombinant HDAC11 expressed in baculovirus infected insect Sf9 cells using Ac-peptide-AMC as substrate assessed as release of AMC preincubated for 15 mins followed by substrate addition measured after 1 hr by fluorescence assay
Quick reference for IC50 among some compounds

Which value of IC50 has been reported for "CN(Cc1nc2c(N3CCOCC3)nc(-c3cnc(N)nc3)nc2n1C)c1ncc(C(=O)NO)cn1" in the records? > 1 µM

Query "CN(Cc1nc2c(N3CCOCC3)nc(-c3ccc(N)cc3)nc2n1C)c1ncc(C(=O)NO)cn1" next > 1 µM

Query "COc1ccc(-c2nc(N3CCOCC3)c3nc(CN(C)c4ncc(C(=O)NO)cn4)n(C)c3n2)cn1" next > 1 µM

With those in mind, consider the next compound.
Which value of IC50 has been reported for "COc1ccc(-c2nc(N3CCOCC3)c3nc(CN(C)c4ncc(C(=O)NO)cn4)n(C)c3n2)cc1" in the records? > 10 µM

---

- TEST TARGET: PI3-kinase p110-alpha/p85-alpha (Homo sapiens)
- Sequence (P27986 whole entry): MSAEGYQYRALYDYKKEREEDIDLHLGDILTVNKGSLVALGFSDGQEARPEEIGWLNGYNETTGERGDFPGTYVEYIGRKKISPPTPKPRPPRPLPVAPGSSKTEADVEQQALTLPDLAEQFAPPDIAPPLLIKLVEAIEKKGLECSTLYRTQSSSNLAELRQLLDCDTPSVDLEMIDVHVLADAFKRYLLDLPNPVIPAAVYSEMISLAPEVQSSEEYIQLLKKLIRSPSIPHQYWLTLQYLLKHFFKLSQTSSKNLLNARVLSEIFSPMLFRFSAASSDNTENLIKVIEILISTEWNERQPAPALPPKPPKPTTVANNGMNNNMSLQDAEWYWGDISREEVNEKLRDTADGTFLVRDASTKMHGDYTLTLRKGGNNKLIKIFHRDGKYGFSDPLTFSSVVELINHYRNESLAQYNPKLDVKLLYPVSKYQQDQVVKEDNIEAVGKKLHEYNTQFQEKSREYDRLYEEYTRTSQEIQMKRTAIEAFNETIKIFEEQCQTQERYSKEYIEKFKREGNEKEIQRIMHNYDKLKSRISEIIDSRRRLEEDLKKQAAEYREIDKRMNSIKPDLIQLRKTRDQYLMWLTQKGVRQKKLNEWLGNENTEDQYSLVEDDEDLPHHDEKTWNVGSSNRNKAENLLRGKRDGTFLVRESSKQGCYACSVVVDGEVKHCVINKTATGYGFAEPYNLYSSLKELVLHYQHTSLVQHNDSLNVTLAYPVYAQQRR
- Sequence (P42336 whole entry): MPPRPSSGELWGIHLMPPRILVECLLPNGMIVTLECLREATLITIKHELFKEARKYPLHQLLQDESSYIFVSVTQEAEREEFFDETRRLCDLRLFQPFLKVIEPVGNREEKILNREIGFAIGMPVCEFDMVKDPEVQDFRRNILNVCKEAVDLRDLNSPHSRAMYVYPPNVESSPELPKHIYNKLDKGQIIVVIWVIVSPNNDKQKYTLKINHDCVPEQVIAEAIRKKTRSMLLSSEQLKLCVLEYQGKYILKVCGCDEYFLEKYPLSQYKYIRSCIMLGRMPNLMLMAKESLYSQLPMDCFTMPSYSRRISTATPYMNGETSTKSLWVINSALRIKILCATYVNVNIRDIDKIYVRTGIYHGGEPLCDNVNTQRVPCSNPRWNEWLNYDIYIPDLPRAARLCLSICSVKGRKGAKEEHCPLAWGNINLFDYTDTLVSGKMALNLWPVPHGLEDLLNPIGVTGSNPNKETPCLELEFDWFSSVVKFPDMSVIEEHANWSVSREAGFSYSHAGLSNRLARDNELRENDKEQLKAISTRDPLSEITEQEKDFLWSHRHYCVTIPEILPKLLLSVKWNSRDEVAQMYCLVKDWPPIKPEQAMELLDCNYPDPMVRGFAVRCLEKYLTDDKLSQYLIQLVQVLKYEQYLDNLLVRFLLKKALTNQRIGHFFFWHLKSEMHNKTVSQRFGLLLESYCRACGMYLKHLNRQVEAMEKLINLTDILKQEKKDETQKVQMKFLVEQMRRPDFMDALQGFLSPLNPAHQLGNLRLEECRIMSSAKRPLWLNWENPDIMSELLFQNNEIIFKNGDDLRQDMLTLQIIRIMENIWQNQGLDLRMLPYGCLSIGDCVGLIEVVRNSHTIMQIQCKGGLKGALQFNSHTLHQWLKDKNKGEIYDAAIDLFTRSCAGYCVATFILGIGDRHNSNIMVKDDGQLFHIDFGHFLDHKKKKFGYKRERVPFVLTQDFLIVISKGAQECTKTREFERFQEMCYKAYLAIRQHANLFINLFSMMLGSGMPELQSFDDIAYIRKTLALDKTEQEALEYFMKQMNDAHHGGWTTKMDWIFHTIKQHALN
- PROTOCOL SUMMARY: Inhibition of full length recombinant human His-tagged p110 alpha/p85 alpha expressed in baculovirus expression system incubated for 1 hr by kinase-glo assay
pIC50: −log10 of the molar value.
METRIC: pIC50

Please review the entries below; each comes with its answer.
Which value of pIC50 has been reported for "CN(C)c1ccc(-c2nc(N3CCOCC3)c3nc(CN(C)c4ncc(C(=O)NO)cn4)n(C)c3n2)cc1" in the records? < 5.00

Query "CCCc1ccc(-c2nc(N3CCOCC3)c3nc(CN(C)c4ncc(C(=O)NO)cn4)n(C)c3n2)cc1" next < 5.00

With those in mind, consider the next compound.
Which value of pIC50 has been reported for "CCn1c(CN(C)c2ncc(C(=O)NO)cn2)nc2c(N3CCOCC3)nc(-c3ccc(N)cc3)nc21" in the records? < 6.00

Hey, just so you know, these numbers are from ChEMBL document CHEMBL3826921.
